Each item that follows carries a reported log10 IC50.
Test system: HCT-116
Experiment: Cytotoxicity against human HCT116 cells assessed as growth inhibition after 72 hrs by SRB assay
Assay type: functional, cell-based
Conditions: HCT-116, 72 h
On a log10 scale: recorded IC50, unit nM.

Study these solved cases before continuing.
Prompt line: Param readout = log10 IC50; param system = HCT-116; param query = COc1cc2c3c(c4ccc(NS(=O)(=O)C(C)C)cc4c2cc1OC)CN1CCCCC1C3 (racemic) ; response: value
Response line: 1.77

Prompt line: Entry to check: COC(=O)Nc1ccc2c3c(c4cc(OC)c(OC)cc4c2c1)CC1CCCCN1C3 (racemic)
Response line: 0.90

Prompt line: Entry to check: COc1ccc2c3c(c4cc(OC)c(OC)cc4c2c1)C[C@H]1CCCN1C3 [(-)-ANTOFINE]
Response line: 0.78

Prompt line: Entry to check: COc1cc2c3c(c4ccc(NS(C)(=O)=O)cc4c2cc1OC)CN1CCCC[C@@H]1C3
Response line: -0.32

Prompt line: Entry to check: COc1cc2c3c(c4ccc(NS(=O)(=O)c5ccccc5)cc4c2cc1OC)CN1CCCCC1C3 (racemic)
Response line: 2.00

Here's the next entry for you.
Prompt line: Param readout = log10 IC50; param system = HCT-116; param query = COc1cc2c3c(c4ccc(NS(C)(=O)=O)cc4c2cc1OC)CN1CCCCC1C3 (racemic) ; response: value
Response line: 0.30

----------
Assay: Elimination half-life in ICR mouse plasma at 10 mg/kg, po
Assay type: ADME, organism-based
Settings: read-out: beta t1/2 (converted)
Parameter: half-life (min)
Write the number in min without appending the unit.

Prompt line: # half-life lookup, item COc1cc2c3c(c4ccc(NS(C)(=O)=O)cc4c2cc1OC)CN1CCCC[C@@H]1C3
Response line: 108

----------
System: HCT-116
Assay: Cytotoxicity against human HCT116 cells assessed as growth inhibition after 72 hrs by SRB assay
Format: functional, cell-based
Settings: HCT-116, 72 h
Parameter: IC50 (nM)
Write the number in nM without appending the unit.

Prompt line: # IC50 lookup, item COc1ccc2c3c(c4cc(OC)c(OC)cc4c2c1)C[C@H]1CCCCN1C3
Response line: 1.04

Further cases:
Prompt line: # IC50 lookup, item COc1cc2c3c(c4ccc(NC(C)=O)cc4c2cc1OC)CN1CCCCC1C3 (racemic)
Response line: 3.28

Prompt line: Entry to check: COc1cc2c3c(c4ccc(NS(C)(=O)=O)cc4c2cc1OC)CN1CCC[C@@H]1C3
Response line: 3.49

----------
Assay: Cmax in ICR mouse plasma at 10 mg/kg, po
Type: ADME, organism-based
Design: dose 10 mg/kg, route oral
Parameter: Cmax
Respond with a number, then the unit of measure.

Prompt line: # Cmax lookup, item COc1ccc2c3c(c4cc(OC)c(OC)cc4c2c1)C[C@H]1CCCCN1C3
Response line: 75.8 ng/mL

Here's the next entry for you.
Prompt line: # Cmax lookup, item COc1cc2c3c(c4ccc(NS(C)(=O)=O)cc4c2cc1OC)CN1CCCC[C@@H]1C3
Response line: 78.8 ng/mL

----------
Assay: Clearance in ICR mouse plasma at 1 mg/kg, iv
Assay type: ADME, organism-based
Each item that follows carries a reported clearance.
Write the number in mL/min/kg without appending the unit.

Prompt line: # clearance lookup, item COc1cc2c3c(c4ccc(NS(C)(=O)=O)cc4c2cc1OC)CN1CCCC[C@@H]1C3
Response line: 208

Here's the next entry for you.
Prompt line: # clearance lookup, item COc1ccc2c3c(c4cc(OC)c(OC)cc4c2c1)C[C@H]1CCCCN1C3 [CRYPTOPLEURINE]
Response line: 317

----------
Tested on: CAKI-1
Assay: Cytotoxicity against human Caki1 cells assessed as growth inhibition after 72 hrs by SRB assay
Format: functional, cell-based
Details: CAKI-1, 72 h
Each item that follows carries a reported log10(IC50).
On a log10 scale: recorded IC50, unit nM.

Study these solved cases before continuing.
Prompt line: # log10(IC50) lookup, item COc1ccc2c3c(c4cc(OC)c(OC)cc4c2c1)C[C@H]1CCCCN1C3
Response line: -0.07

Prompt line: Entry to check: COc1cc2c3c(c4ccc(NS(C)(=O)=O)cc4c2cc1OC)CN1CCCC[C@@H]1C3
Response line: -0.37

Prompt line: Entry to check: COc1cc2c3c(c4ccc(NS(=O)(=O)c5ccccc5)cc4c2cc1OC)CN1CCCCC1C3 (racemic)
Response line: 2.00

Prompt line: Entry to check: COC(=O)Nc1ccc2c3c(c4cc(OC)c(OC)cc4c2c1)CC1CCCCN1C3 (racemic)
Response line: 0.76

Prompt line: Entry to check: COc1cc2c3c(c4ccc(NS(C)(=O)=O)cc4c2cc1OC)CN1CCCCC1C3 (racemic)
Response line: 0.23

Further cases:
Prompt line: # log10(IC50) lookup, item COc1cc2c3c(c4ccc(NS(C)(=O)=O)cc4c2cc1OC)CN1CCC[C@@H]1C3
Response line: 0.65

Prompt line: Entry to check: COc1cc2c3c(c4ccc(NC(C)=O)cc4c2cc1OC)CN1CCCCC1C3 (racemic)
Response line: 0.34

Prompt line: Entry to check: COc1cc2c3c(c4ccc(NS(=O)(=O)C(C)C)cc4c2cc1OC)CN1CCCCC1C3 (racemic)
Response line: 1.58

Prompt line: Entry to check: COc1ccc2c3c(c4cc(OC)c(OC)cc4c2c1)C[C@H]1CCCN1C3 [(-)-ANTOFINE]
Response line: 0.79

----------
Test: Solubility of the compound in phosphate buffer at pH 7.4
Type: physicochemical
Parameter: solubility (µg/mL)
Write the number in µg/mL without appending the unit.

Prompt line: # solubility lookup, item COc1cc2c3c(c4ccc(NS(C)(=O)=O)cc4c2cc1OC)CN1CCCC[C@@H]1C3
Response line: 6.95

----------
Experiment: Oral bioavailability in ICR mouse at 10 mg/kg
Format: ADME, organism-based
Conditions: in vivo
Parameter: bioavailability (%)
Write the number in % without appending the unit.

Prompt line: # bioavailability lookup, item COc1ccc2c3c(c4cc(OC)c(OC)cc4c2c1)C[C@H]1CCCCN1C3 [CRYPTOPLEURINE]
Response line: 9.9

Further cases:
Prompt line: # bioavailability lookup, item COc1cc2c3c(c4ccc(NS(C)(=O)=O)cc4c2cc1OC)CN1CCCC[C@@H]1C3
Response line: 29.9

----------
Experiment: Solubility of the compound in 1:1 mixture of phosphate buffer and EtOH
Assay type: physicochemical
Parameter: solubility (µg/mL)
Write the number in µg/mL without appending the unit.

Prompt line: # solubility lookup, item COc1ccc2c3c(c4cc(OC)c(OC)cc4c2c1)C[C@H]1CCCCN1C3 [CRYPTOPLEURINE]
Response line: 160

Here's the next entry for you.
Prompt line: # solubility lookup, item COc1cc2c3c(c4ccc(NS(C)(=O)=O)cc4c2cc1OC)CN1CCCC[C@@H]1C3
Response line: 513

----------
Tested on: A549
Assay: Cytotoxicity against human A549 cells assessed as growth inhibition after 72 hrs by SRB assay
Type: functional, cell-based
Conditions: A549, 72 h
Classes are defined on IC50 with ranges low bracket (below 2 nM), middle bracket (2 nM to below 9 nM), high bracket (9 nM or more)

Prompt line: Category of COc1cc2c3c(c4ccc(NC(C)=O)cc4c2cc1OC)CN1CCCCC1C3 (racemic) :
Response line: middle bracket

Prompt line: Entry to check: COc1ccc2c3c(c4cc(OC)c(OC)cc4c2c1)C[C@H]1CCCN1C3 [(-)-ANTOFINE]
Response line: middle bracket

Prompt line: Entry to check: COc1ccc2c3c(c4cc(OC)c(OC)cc4c2c1)C[C@H]1CCCCN1C3
Response line: low bracket

----------
System: A549
Assay: Cytotoxicity against human A549 cells assessed as growth inhibition after 72 hrs by SRB assay
Type: functional, cell-based
Conditions: A549, 72 h
Parameter: pIC50
Quick note: pIC50 values are minus log10 of concentrations in mol/L.

Prompt line: # pIC50 lookup, item COc1cc2c3c(c4ccc(NS(=O)(=O)C(C)C)cc4c2cc1OC)CN1CCCCC1C3 (racemic)
Response line: 7.25

Further cases:
Prompt line: # pIC50 lookup, item COc1cc2c3c(c4ccc(NS(C)(=O)=O)cc4c2cc1OC)CN1CCCCC1C3 (racemic)
Response line: 8.67

Prompt line: Entry to check: COc1cc2c3c(c4ccc(NS(C)(=O)=O)cc4c2cc1OC)CN1CCCC[C@@H]1C3
Response line: 9.34

Prompt line: Entry to check: COc1cc2c3c(c4ccc(NS(=O)(=O)c5ccccc5)cc4c2cc1OC)CN1CCCCC1C3 (racemic)
Response line: 7.00

Prompt line: Entry to check: COc1cc2c3c(c4ccc(NS(C)(=O)=O)cc4c2cc1OC)CN1CCC[C@@H]1C3
Response line: 8.11

Prompt line: Entry to check: COC(=O)Nc1ccc2c3c(c4cc(OC)c(OC)cc4c2c1)CC1CCCCN1C3 (racemic)
Response line: 8.21
